Exercise: for every item that follows, state its recorded kon.
molecular target: T1, Human CD47-C33G (human, UniProt Q08722 19-135); assay: SPR, IgG captured, CD47 in flow; exp 3;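 note: other target is a CD47 mutein carrying C33G, used to obtain true monovalent affinity, with kon and koff fitted from SPR binding curves and KD derived from both rates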
T1 construct: also called CD47 mutein with C33G mutation
T1 sequence (Q08722 19-135 C33G limits assumed): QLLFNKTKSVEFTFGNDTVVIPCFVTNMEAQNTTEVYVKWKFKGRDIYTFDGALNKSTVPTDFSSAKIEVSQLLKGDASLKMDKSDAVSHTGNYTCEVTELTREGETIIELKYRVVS
One number for each entry, in M⁻¹ s⁻¹.

>  <binder>
108VH10.Mh / 108VL10.Me (antibody, V domains shown, 4D5-framework series; constant regions not restated for this series; also called VH10.Mh VL10.Me) VH: EVQLVESGGGLVQPGGSLRLSCAASGFTFSHHWIHWVRQAPGKGLEWVAMIDASDSETRLVQKFKDRFTISADTSKNTAYLQMNSLRAEDTAVYYCSRLGRYYFDYWGQGTLVTVSS VL: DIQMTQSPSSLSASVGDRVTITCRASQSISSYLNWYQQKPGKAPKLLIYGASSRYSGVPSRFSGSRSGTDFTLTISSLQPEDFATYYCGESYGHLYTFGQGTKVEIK

>  <result-unit>
M⁻¹ s⁻¹

>  <kon>
79000

$$$$

Please find the next binder below.
Request: For the binder shown here, 108VH10.Mj / 108VL10.Me (antibody, V domains shown, 4D5-framework series; constant regions not restated for this series; also called VH10.Mj VL10.Me) VH: EVQLVESGGGLVQPGGSLRLSCAASGFTFSHHWIHWVRQAPGKGLEWVAMIDASDSETRLSQSFKDRFTISADTSKNTAYLQMNSLRAEDTAVYYCSRLGRYYFDYWGQGTLVTVSS VL: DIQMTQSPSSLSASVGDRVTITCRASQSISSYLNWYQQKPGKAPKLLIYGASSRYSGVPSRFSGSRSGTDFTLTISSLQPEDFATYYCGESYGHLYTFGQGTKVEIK , give the reported kon.
Result: 210000
